- target.system: ATP-dependent translocase ABCB1 (MDR1) (Homo sapiens, UniProt P08183)
- Sequence (P08183 whole entry): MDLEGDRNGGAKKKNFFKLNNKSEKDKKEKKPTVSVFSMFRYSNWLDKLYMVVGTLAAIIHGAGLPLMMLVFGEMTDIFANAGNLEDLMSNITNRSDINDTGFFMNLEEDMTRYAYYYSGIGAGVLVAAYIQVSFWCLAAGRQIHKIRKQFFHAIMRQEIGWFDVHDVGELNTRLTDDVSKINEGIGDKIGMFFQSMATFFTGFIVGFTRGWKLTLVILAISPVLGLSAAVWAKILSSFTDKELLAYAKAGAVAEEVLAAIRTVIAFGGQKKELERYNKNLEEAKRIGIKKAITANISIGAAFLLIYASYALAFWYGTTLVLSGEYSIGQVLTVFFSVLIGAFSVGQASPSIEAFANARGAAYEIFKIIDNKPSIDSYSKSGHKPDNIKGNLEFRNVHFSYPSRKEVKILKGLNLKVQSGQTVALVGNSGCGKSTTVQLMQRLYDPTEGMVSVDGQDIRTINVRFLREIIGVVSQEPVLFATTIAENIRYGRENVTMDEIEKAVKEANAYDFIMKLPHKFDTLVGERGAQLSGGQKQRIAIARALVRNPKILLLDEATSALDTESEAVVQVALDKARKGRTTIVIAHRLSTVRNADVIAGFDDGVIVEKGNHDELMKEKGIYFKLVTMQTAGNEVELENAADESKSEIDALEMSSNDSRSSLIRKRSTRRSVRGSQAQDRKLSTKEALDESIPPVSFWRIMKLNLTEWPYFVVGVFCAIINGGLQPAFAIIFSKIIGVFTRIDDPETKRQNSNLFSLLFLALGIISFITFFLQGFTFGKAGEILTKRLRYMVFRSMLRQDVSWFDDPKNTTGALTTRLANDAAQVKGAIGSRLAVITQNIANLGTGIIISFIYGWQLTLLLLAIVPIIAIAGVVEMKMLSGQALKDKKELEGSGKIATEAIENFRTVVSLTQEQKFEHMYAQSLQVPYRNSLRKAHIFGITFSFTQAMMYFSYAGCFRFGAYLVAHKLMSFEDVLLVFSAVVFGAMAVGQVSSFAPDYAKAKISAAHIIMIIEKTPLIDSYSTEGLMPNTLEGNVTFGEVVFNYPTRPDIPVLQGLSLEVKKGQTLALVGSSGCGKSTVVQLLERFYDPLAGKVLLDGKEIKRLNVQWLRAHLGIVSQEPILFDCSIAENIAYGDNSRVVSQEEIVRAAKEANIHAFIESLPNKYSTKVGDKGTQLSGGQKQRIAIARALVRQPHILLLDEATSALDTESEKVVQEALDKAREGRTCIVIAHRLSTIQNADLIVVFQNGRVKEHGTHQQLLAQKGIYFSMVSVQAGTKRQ
- assay.protocol: in vitro
- cond: dog, MDCK-MDR1, Papp
- Description: Apparent permeability (Papp) from basolateral to apical side determined in MDR1-MDCKII cells
I'd appreciate it if you could supply Papp B→A values for the items below.
// return numeric value only (unit: ×10⁻⁶ cm/s, not printed)

Which measured Papp B→A value corresponds to C=C[C@H]1C[N@@]2CC[C@H]1C[C@@H]2[C@@H](O)c1ccnc2ccc(OC)cc12 [QUINIDINE] ?
99

Which measured Papp B→A value corresponds to COc1cc2c(cc1OC)CN(CCc1ccc(NC(=O)c3cccc4c(=O)c5cccc(OC)c5[nH]c34)cc1)CC2 ?
1.86

Which measured Papp B→A value corresponds to C[C@@H]1C[C@H]2[C@@H]3CCC4=CC(=O)C=C[C@]4(C)[C@@]3(F)[C@@H](O)C[C@]2(C)[C@@]1(O)C(=O)CO [DEXAMETHASONE] ?
53.7

Which measured Papp B→A value corresponds to OC[C@@H](O)[C@@H](O)[C@H](O)[C@H](O)CO [MANNITOL] ?
0.915

====

- target.system: UniProt:P08183
- assay.protocol: in vitro
- cond: dog, MDCK-MDR1, Papp
endpoint.name: Papp B→A
Please make sure the unit comes right after the number.

Which measured Papp B→A value corresponds to COc1cc(Cc2cnc(N)nc2N)cc(OC)c1OC ?
26.7 ×10⁻⁶ cm/s

Which measured Papp B→A value corresponds to CC(=O)Nc1ccc(OCC(O)CNC(C)C)cc1 (centres undefined) ?
1.64 ×10⁻⁶ cm/s

Which measured Papp B→A value corresponds to O=C1c2c(O)ccc(O)c2C(=O)c2c(NCCNCCO)ccc(NCCNCCO)c21 ?
0.644 ×10⁻⁶ cm/s

Which measured Papp B→A value corresponds to CC(C)CN(C[C@@H](O)[C@H](Cc1ccccc1)NC(=O)O[C@H]1CCOC1)S(=O)(=O)c1ccc(N)cc1 ?
98.7 ×10⁻⁶ cm/s

Which measured Papp B→A value corresponds to COc1cccc2c1C(=O)c1c(O)c3c(c(O)c1C2=O)C[C@@](O)(C(C)=O)C[C@@H]3O[C@H]1C[C@H](N)[C@H](O)[C@H](C)O1 ?
7.77 ×10⁻⁶ cm/s

Which measured Papp B→A value corresponds to COc1ccc(C[C@H](N)C(=O)N[C@H]2[C@@H](O)[C@H](n3cnc4c(N(C)C)ncnc43)O[C@@H]2CO)cc1 ?
3.56 ×10⁻⁶ cm/s

Which measured Papp B→A value corresponds to CCOC(=O)C1=C(C)NC(C)=C(C(=O)OC)C1c1cccc([N+](=O)[O-])c1 (centres undefined) ?
48.3 ×10⁻⁶ cm/s

Which measured Papp B→A value corresponds to CN(C)CCC(c1ccc(Cl)cc1)c1ccccn1 (racemic) ?
64.2 ×10⁻⁶ cm/s

Which measured Papp B→A value corresponds to CC[C@H]1OC(=O)[C@H](C)[C@@H](O[C@H]2C[C@@](C)(OC)[C@@H](O)[C@H](C)O2)[C@H](C)[C@@H](O[C@@H]2O[C@H](C)C[C@H](N(C)C)[C@H]2O)[C@](C)(O)C[C@@H](C)C(=O)[C@H](C)[C@@H](O)[C@]1(C)O ?
1.35 ×10⁻⁶ cm/s

Which measured Papp B→A value corresponds to CNC(=C[N+](=O)[O-])NCCSCc1ccc(CN(C)C)o1 ?
1.95 ×10⁻⁶ cm/s

Which measured Papp B→A value corresponds to NC12CC3CC(CC(C3)C1)C2 ?
15.7 ×10⁻⁶ cm/s

Which measured Papp B→A value corresponds to CC(C)(C)NC(=O)[C@@H]1CN(Cc2cccnc2)CCN1C[C@@H](O)C[C@@H](Cc1ccccc1)C(=O)N[C@H]1c2ccccc2C[C@H]1O.O ?
17.6 ×10⁻⁶ cm/s

Which measured Papp B→A value corresponds to CCC1=C[C@@H]2CN(C1)Cc1c([nH]c3ccccc13)[C@@](C(=O)OC)(c1cc3c(cc1OC)N(C)[C@H]1[C@@](O)(C(=O)OC)[C@H](OC(C)=O)[C@]4(CC)C=CCN5CC[C@]31[C@@H]54)C2 ?
17.6 ×10⁻⁶ cm/s

Which measured Papp B→A value corresponds to COC(=O)[C@@H]1[C@H]2C[C@H]3c4[nH]c5ccccc5c4CCN3C[C@@H]2CC[C@@H]1O ?
50.1 ×10⁻⁶ cm/s
